The measurements presented in this section are drawn from patent US6686390B2.

Result Type: melting point

>>> val("CS(=O)(=O)c1ccc(C2=C(c3cccc4ccccc34)C(=O)OC2)c(F)c1")
"145 to 148 °C"
>>> val("CCC1OC(=O)C(c2ccc(SC)c(C)c2)=C1c1ccc(S(C)(=O)=O)c(F)c1 (centres unmarked)")
"148 to 150 °C"
>>> val("CSc1ccc(C2=C(c3ccc(F)cc3)C(=O)OC2)c(F)c1")
"118 °C"

// for each molecule in input: emit melting point
1. CSc1ccc(C2=C(c3ccccc3)C(=O)OC2)c(F)c1
2. CSc1ccc(C2=C(c3ccc(C)cc3)C(=O)OC2)cc1Cl

Solution:
1. 145 to 147 °C
2. 147 to 149 °C
